test system: Bord. bronchiseptica BO8; test: MIC against veterinary bacteria; conditions: Bordetella bronchiseptica
Listed below: MIC values for each entry.
measured_parameter: MIC

1) C=CCOC(=O)/C=C(\C)CC1OCC(C/C=C/C(C)C(C)O)C(O)C1O (stereo not shown) [Allyl, Allyl Monate C]; > 80 µg/mL
2) C/C(=C\C(=O)OCC(C)C)CC1OCC(C/C=C/C(C)C(C)O)C(O)C1O (stereo not shown) [Isobutyl, Isobutyl Monate C]; > 80 µg/mL
3) CCOC(=O)/C=C(\C)CC1OCC(C/C=C/C(C)C(C)O)C(O)C1O (stereo not shown) [Ethyl, Ethyl Monate C]; > 80 µg/mL
4) C/C(=C\C(=O)OCCCCCCO)CC1OCC(C/C=C/C(C)C(C)O)C(O)C1O (stereo not shown) [6-Hydroxyhexyl, 6-Hydroxyhexyl Monate C]; > 80 µg/mL

---

The molecules below have reported MIC for Past. haemolytica PA5.
measured_parameter: MIC (µg/mL)

1) C=CCOC(=O)/C=C(\C)CC1OCC(C/C=C/C(C)C(C)O)C(O)C1O (stereo not shown) [Allyl, Allyl Monate C]; 20
2) C/C(=C\C(=O)OCCCCCCO)CC1OCC(C/C=C/C(C)C(C)O)C(O)C1O (stereo not shown) [6-Hydroxyhexyl, 6-Hydroxyhexyl Monate C]; 40
3) CCOC(=O)/C=C(\C)CC1OCC(C/C=C/C(C)C(C)O)C(O)C1O (stereo not shown) [Ethyl, Ethyl Monate C]; 40
4) C/C(=C\C(=O)OCC(C)C)CC1OCC(C/C=C/C(C)C(C)O)C(O)C1O (stereo not shown) [Isobutyl, Isobutyl Monate C]; 80

---

Please consider the recorded MIC for Staph. aureus Russell in what follows.
measured_parameter: MIC (µg/mL)

1. C/C(=C\C(=O)OCCCCCCO)CC1OCC(C/C=C/C(C)C(C)O)C(O)C1O (centres unmarked) [6-Hydroxyhexyl, 6-Hydroxyhexyl Monate C]; 1
2. C=CCOC(=O)/C=C(\C)CC1OCC(C/C=C/C(C)C(C)O)C(O)C1O (centres unmarked) [Allyl, Allyl Monate C]; 1
3. COC(=O)/C=C(\C)CC1OCC(C/C=C/C(C)C(C)O)C(O)C1O (centres unmarked) [Methyl, Methyl Monate C]; 2.5
4. C/C(=C\C(=O)OCC(C)C)CC1OCC(C/C=C/C(C)C(C)O)C(O)C1O (centres unmarked) [Isobutyl, Isobutyl Monate C]; 1
5. CCOC(=O)/C=C(\C)CC1OCC(C/C=C/C(C)C(C)O)C(O)C1O (centres unmarked) [Ethyl, Ethyl Monate C]; 0.2

---

Reported values: MIC for N. catarrhalis 1502, one per item.
measured_parameter: MIC (µg/mL)

1. COC(=O)/C=C(\C)CC1OCC(C/C=C/C(C)C(C)O)C(O)C1O (stereo not shown) [Methyl, Methyl Monate C]; 1
2. C/C(=C\C(=O)OCC(C)C)CC1OCC(C/C=C/C(C)C(C)O)C(O)C1O (stereo not shown) [Isobutyl, Isobutyl Monate C]; 1
3. CCOC(=O)/C=C(\C)CC1OCC(C/C=C/C(C)C(C)O)C(O)C1O (stereo not shown) [Ethyl, Ethyl Monate C]; 0.2
4. C=CCOC(=O)/C=C(\C)CC1OCC(C/C=C/C(C)C(C)O)C(O)C1O (stereo not shown) [Allyl, Allyl Monate C]; 0.05

---

system: B. subtilis
measured_parameter: MIC (µg/mL)

1) CCOC(=O)/C=C(\C)CC1OCC(C/C=C/C(C)C(C)O)C(O)C1O (centres unmarked) [Ethyl, Ethyl Monate C]; 1
2) C/C(=C\C(=O)OCC(C)C)CC1OCC(C/C=C/C(C)C(C)O)C(O)C1O (centres unmarked) [Isobutyl, Isobutyl Monate C]; 1
3) C/C(=C\C(=O)OCCCCCCO)CC1OCC(C/C=C/C(C)C(C)O)C(O)C1O (centres unmarked) [6-Hydroxyhexyl, 6-Hydroxyhexyl Monate C]; 0.5
4) COC(=O)/C=C(\C)CC1OCC(C/C=C/C(C)C(C)O)C(O)C1O (centres unmarked) [Methyl, Methyl Monate C]; 2.5
5) C=CCOC(=O)/C=C(\C)CC1OCC(C/C=C/C(C)C(C)O)C(O)C1O (centres unmarked) [Allyl, Allyl Monate C]; 1

---

tested on: Strep. pneumoniae CN33; experiment: MIC by serial dilution in nutrient agar (human bacteria); details: Streptococcus pneumoniae
Quick list: MIC per entry.
measured_parameter: MIC (µg/mL)

1) COC(=O)/C=C(\C)CC1OCC(C/C=C/C(C)C(C)O)C(O)C1O (stereo not shown) [Methyl, Methyl Monate C]; 25
2) C=CCOC(=O)/C=C(\C)CC1OCC(C/C=C/C(C)C(C)O)C(O)C1O (stereo not shown) [Allyl, Allyl Monate C]; 2.5
3) C/C(=C\C(=O)OCC(C)C)CC1OCC(C/C=C/C(C)C(C)O)C(O)C1O (stereo not shown) [Isobutyl, Isobutyl Monate C]; 5
4) CCOC(=O)/C=C(\C)CC1OCC(C/C=C/C(C)C(C)O)C(O)C1O (stereo not shown) [Ethyl, Ethyl Monate C]; 2.5

---

This document collects MIC values reported for H. influenzae Wy21.
measured_parameter: MIC (µg/mL)

1) CCOC(=O)/C=C(\C)CC1OCC(C/C=C/C(C)C(C)O)C(O)C1O (stereo not shown) [Ethyl, Ethyl Monate C]; 1
2) COC(=O)/C=C(\C)CC1OCC(C/C=C/C(C)C(C)O)C(O)C1O (stereo not shown) [Methyl, Methyl Monate C]; 2.5
3) C/C(=C\C(=O)OCC(C)C)CC1OCC(C/C=C/C(C)C(C)O)C(O)C1O (stereo not shown) [Isobutyl, Isobutyl Monate C]; 1
4) C/C(=C\C(=O)OCCCCCCO)CC1OCC(C/C=C/C(C)C(C)O)C(O)C1O (stereo not shown) [6-Hydroxyhexyl, 6-Hydroxyhexyl Monate C]; 0.2

---

What follows is a record of MIC for Strep. pyogenes C 2761.
measured_parameter: MIC (µg/mL)

1) C/C(=C\C(=O)OCC(C)C)CC1OCC(C/C=C/C(C)C(C)O)C(O)C1O (centres unmarked) [Isobutyl, Isobutyl Monate C]; 25
2) C/C(=C\C(=O)OCCCCCCO)CC1OCC(C/C=C/C(C)C(C)O)C(O)C1O (centres unmarked) [6-Hydroxyhexyl, 6-Hydroxyhexyl Monate C]; 5
3) CCOC(=O)/C=C(\C)CC1OCC(C/C=C/C(C)C(C)O)C(O)C1O (centres unmarked) [Ethyl, Ethyl Monate C]; 5
4) C=CCOC(=O)/C=C(\C)CC1OCC(C/C=C/C(C)C(C)O)C(O)C1O (centres unmarked) [Allyl, Allyl Monate C]; 10

---

tested on: H. influenzae Q1
# MIC annotations
measured_parameter: MIC

1. COC(=O)/C=C(\C)CC1OCC(C/C=C/C(C)C(C)O)C(O)C1O (centres unmarked) [Methyl, Methyl Monate C]; 1 µg/mL
2. C/C(=C\C(=O)OCC(C)C)CC1OCC(C/C=C/C(C)C(C)O)C(O)C1O (centres unmarked) [Isobutyl, Isobutyl Monate C]; 1 µg/mL
3. CCOC(=O)/C=C(\C)CC1OCC(C/C=C/C(C)C(C)O)C(O)C1O (centres unmarked) [Ethyl, Ethyl Monate C]; 0.2 µg/mL
4. C/C(=C\C(=O)OCCCCCCO)CC1OCC(C/C=C/C(C)C(C)O)C(O)C1O (centres unmarked) [6-Hydroxyhexyl, 6-Hydroxyhexyl Monate C]; 0.2 µg/mL
5. C=CCOC(=O)/C=C(\C)CC1OCC(C/C=C/C(C)C(C)O)C(O)C1O (centres unmarked) [Allyl, Allyl Monate C]; 0.5 µg/mL
